The measurements presented in this section are drawn from PubChem BioAssay.

Below, each entry is listed with its recorded GFP response, % of DMSO.
- method.description: modulators of CIT2-GFP expression in yeast, confirmation, S. cerevisiae, GFP fusion, cherry picks, mother/daughter gates (AID 2274)
- protocol.conditions: S. cerevisiae CIT2-GFP strain, flow cytometry, 3 h; at 10 µM; stronger effect = higher value
// return numeric value only (unit: %, not printed)

Worked examples, 4 molecules total:
molecule | reported.endpoint | readout.value
O=C(c1ccccc1)c1ccccc1N1C(=O)C=CC1=O | GFP response, % of DMSO | 86
COc1ccc(C(=O)C2CCCN(C(=O)c3cccs3)C2)cc1F (stereo unspecified) | GFP response, % of DMSO | 100
COc1ccccc1C(=O)NNC(=S)NC(=O)c1cccs1 | GFP response, % of DMSO | 121
N/C(Cc1ccc(Cl)cc1Cl)=N\OC(=O)c1ccccc1 | GFP response, % of DMSO | 181

IN: Return reported GFP response, % of DMSO; argument: O=C(Nc1ccccc1C(=O)O)c1ccccc1
OUT: 99.3

IN: Return reported GFP response, % of DMSO; argument: O=c1c2c(-c3ccc(Cl)cc3)csc2ncn1/N=C/c1cccc([N+](=O)[O-])c1O
OUT: 99.3
